This collection of values is drawn from PubChem BioAssay (NCI).

# NCI-H460 lung: GI50 values follow

molecule | GI50
O=C(c1ccccc1)c1c(C(F)(F)F)n([O-])c2cc(C(F)(F)F)ccc2[n+]1=O | 1.68 µM
CCCCCC[C@@H](C)NC(=O)c1ccc(Nc2nc3ccccc3c3occc23)cc1 | 3.87 µM
CC(=O)O[C@H]1C(=O)[C@@]2(C)[C@H]([C@H](OC(=O)c3ccccc3)[C@]3(O)C[C@H](OC(=O)[C@H](OC(=O)OC[C@H]4COC(C)(C)O4)[C@@H](NC(=O)c4ccccc4)c4ccccc4)C(C)=C1C3(C)C)[C@]1(OC(C)=O)CO[C@@H]1C[C@@H]2O | 0.00601 µM
CO[C@H]1C[C@](C)(O)Cc2cc3c(c(O)c21)C(=O)c1c(O)cc2c(c1C3=O)O[C@@H]1O[C@@]2(C)[C@H](O)[C@@H](N(C)C)[C@@H]1O | 0.035 µM
COc1cc(C(=O)O[C@H](C(=O)NCCN(C)CCNC(=O)[C@@H](OC(=O)c2cc(OC)cc3c(C)cccc23)[C@]2(C)CO2)[C@]2(C)CO2)c2cccc(C)c2c1 | < 0.01 µM
Nc1nc2cc(CC[C@H]3C[C@@H](n4ccc5c(N)ncnc54)[C@H](O)[C@@H]3O)ccc2cc1Br | 10.9 µM
C=C1C(=O)O[C@H]2[C@H]1CC/C(COC(=O)OC/C1=C/CC[C@@]3(C)O[C@H]3[C@H]3OC(=O)[C@@H](CN(C)C)[C@@H]3CC1)=C\CC[C@@]1(C)O[C@@H]21 | 5.38 µM
CC([C@H]1CC=C2C3CCC4=C[C@@H](N(C)C)CC[C@]4(C)C3CC[C@@]21C)N(C)C (some centres undefined) | 2.07 µM
C=C1SC(=Nc2ccccc2Cl)N(C(=O)c2sc3ccccc3c2Cl)C12CCCCC2 | 4.71 µM
COC(=O)CCNc1c2ccccc2nc2cccc([N+](=O)[O-])c12 | 0.0138 µM
Cc1cc(OCCOCCC(F)(F)P(=O)(O)O)ccc1CCc1cnc2c(N)nc3cc(CCC(=O)O)ccc3c2c1 | > 100 µM
Cn1c(-c2ccccc2)c(/C=C/C2=[N+](C)c3ccccc3C2(C)C)c2ccccc21 | 0.58 µM
Cc1nc2ccccn2c1NC(=O)NNC(=S)Nc1ccc(F)cc1 | > 100 µM
Cc1c(N)nc(C(CC(N)=O)NCC(N)C(N)=O)nc1C(=O)NC(C(=O)NC(C)C(O)C(C)C(=O)NC(C(=O)NCCc1nc(-c2nc(C(=O)NCCCNC(C)c3ccccc3)cs2)cs1)C(C)O)C(OC1OC(CO)C(O)C(O)C1OC1OC(CO)C(O)C(OC(N)=O)C1O)c1cnc[nH]1 (centres undefined) | 0.391 µM

###

- Test system: A498 renal
- assay_remarks: NCI tumour cell line growth inhibition, 48 h

molecule_smiles | GI50
O=c1oc2cc(OC/C(=N/O)c3ccc(F)cc3)ccc2c2ccccc12 | 22 µM
CC(=O)/C=C/C1=C(c2csc3ccccc23)c2ccccc2CC1 | 22.4 µM
Cc1nc2ccccn2c1NC(=O)NNC(=S)Nc1ccc(F)cc1 | > 100 µM
O=C1C(=O)c2ccccc2C(O)=C1CCCc1ccc(C2CCCCC2)cc1 | 2.35 µM
O=C(Nc1ccc(F)cc1)Nc1ccc(Br)c(C(F)(F)F)c1 | 1.92 µM

###

Property: TGI; scope: individual compounds
- System: SK-MEL-2 melanoma
- assay_remarks: NCI tumour cell line growth inhibition, 48 h

compound | test_system | TGI
CN1CCc2c(sc3ncn(Nc4ccc(Cl)cc4)c(=N)c23)C1 | SK-MEL-2 melanoma | > 100 µM
COc1cc(C(=O)O[C@H](C(=O)NCCN(C)CCNC(=O)[C@@H](OC(=O)c2cc(OC)cc3c(C)cccc23)[C@]2(C)CO2)[C@]2(C)CO2)c2cccc(C)c2c1 | SK-MEL-2 melanoma | > 100 µM
O=C1CC(=O)NC(=NN2C(=O)CSC2C(=O)c2ccco2)N1 (stereo unspecified) | SK-MEL-2 melanoma | > 100 µM
Cc1ccc(S(=O)(=O)OC(COC(=O)c2ccccc2)C(OS(=O)(=O)c2ccc(C)cc2)C(OS(=O)(=O)c2ccc(C)cc2)C(COC(=O)c2ccccc2)OS(=O)(=O)c2ccc(C)cc2)cc1 (stereo unspecified) | SK-MEL-2 melanoma | > 100 µM
Cc1cc(S(=O)(=O)Nc2nncn2-c2ccc(Cl)cc2)c(S)cc1Cl | SK-MEL-2 melanoma | > 10 µM
COC(=O)CCNc1c2ccccc2nc2cccc([N+](=O)[O-])c12 | SK-MEL-2 melanoma | 0.00284 µM
Cc1ccc2c(c1)C(=O)c1c-2c(OCCCN(C)C)nc2ccccc12 | SK-MEL-2 melanoma | 27.4 µM
Clc1ccc2nc(CI)c(CI)nc2c1 | SK-MEL-2 melanoma | > 32.6 µM
CC(C)C(=O)/C=C/S/C=C/C(=O)C(C)C | SK-MEL-2 melanoma | > 100 µM
COC1=CC(=O)C=C(OC)C1=O | SK-MEL-2 melanoma | 17.7 µM
COc1c(Br)cc2ccccc2c1-c1c(OC)c(Br)cc2ccccc12 | SK-MEL-2 melanoma | > 100 µM

###

- System: HCC-2998 colon
- assay_remarks: NCI tumour cell line growth inhibition, 48 h
recorded_endpoint: GI50

compound | measurement
COc1ccc(/C=C2\SC(=Nc3ccccc3)NC2=O)cc1 | 10 µM
Cc1cc(OCCOCCC(F)(F)P(=O)(O)O)ccc1CCc1cnc2c(N)nc3cc(CCC(=O)O)ccc3c2c1 | > 100 µM
C[C@]12CC[C@H]3[C@@H](CC4SC(N)=NC45C/C(=N/NC(N)=O)CC[C@]35C)[C@@H]1CCC2=O (stereo partly specified) | 1.74 µM
O=C(Nc1ccc(F)cc1)Nc1ccc(Br)c(C(F)(F)F)c1 | 2.38 µM
O=C(c1ccccc1)c1c(C(F)(F)F)n([O-])c2cc(C(F)(F)F)ccc2[n+]1=O | 1.88 µM
Nc1nc2cc(CC[C@H]3C[C@@H](n4ccc5c(N)ncnc54)[C@H](O)[C@@H]3O)ccc2cc1Br | 11.2 µM

###

Property: TGI; scope: individual compounds
- Tested on: HOP-62 NSCLC
- assay_remarks: NCI tumour cell line growth inhibition, 48 h

compound | TGI
CC(C(=O)c1ccccc1)C1(O)C(=O)Nc2ccc(Cl)cc21 (stereo not drawn) | > 100 µM
Cc1cc2c(c(S(=O)(=O)c3ccccc3[N+](=O)[O-])c1)NCCC2 | > 100 µM
O=c1oc2cc(OC/C(=N/O)c3ccc(F)cc3)ccc2c2ccccc12 | 34.2 µM
C=C1SC(=Nc2ccccc2Cl)N(C(=O)c2sc3ccccc3c2Cl)C12CCCCC2 | > 100 µM
COc1cc(C(C)c2cc3c(cc2OCCNC(=O)COc2cc4c(cc2C(C)c2cc(OC)c(OC)c(OC)c2)OCO4)OCO3)cc(OC)c1OC (stereo not drawn) | > 100 µM
CC(=O)O[C@H]1C[C@@H](OC(C)=O)[C@@](C)(O)[C@@H]2[C@@H](OC(C)=O)[C@@]3(O)[C@H](/C=C(/CO)[C@H]4O[C@H]4[C@@H](OC(C)=O)[C@@]12C)OC(=O)[C@@H]3C | > 25 µM
CC(=O)O[C@H]1C(=O)[C@@]2(C)[C@H]([C@H](OC(=O)c3ccccc3)[C@]3(O)C[C@H](OC(=O)[C@H](O)[C@@H](NC(=O)c4ccccc4)c4cccc(N(C)C)c4)C(C)=C1C3(C)C)[C@]1(OC(C)=O)CO[C@@H]1C[C@@H]2O | > 18.3 µM
Cc1ccc2c(c1)C(=O)c1c-2c(OCCCN(C)C)nc2ccccc12 | 16 µM

###

- Tested on: ACHN renal
- assay_remarks: NCI tumour cell line growth inhibition, 48 h
Property: TGI; scope: individual compounds

compound | TGI
C/C(CC(=O)Nc1ccccc1C)=N/NS(=O)(=O)c1ccc(C)cc1 | > 100 µM
Cc1cc(Nc2ccc(NS(C)(=O)=O)cc2)c2c(ccc3nccc32)[nH]1 | 60.8 µM
Cc1cc2c(c(S(=O)(=O)c3ccccc3[N+](=O)[O-])c1)NCCC2 | > 100 µM
O=C(c1ccccc1)c1c(C(F)(F)F)n([O-])c2cc(C(F)(F)F)ccc2[n+]1=O | 2.93 µM
Cc1nc(/C=C2\C(=O)C=Cc3ccccc32)c(O)o1 | > 100 µM
Cc1ccc(-c2cc[n+]3c(n2)oc2ccccc23)cc1 | 99.4 µM
CCn1c2c(c3ccccc31)[C@@H](c1ccc(Cl)cc1)CC1C(=O)N(c3ccccc3)C(=O)C21 (stereo partly specified) | > 100 µM
O=c1[nH]nc(Nc2ccccc2)c2nnn(C3CCCCC3)c12 | > 100 µM
Cc1cccc(C)c1N1C(=O)C(=O)C(c2nc3ccccc3s2)/C(=N/NC(=O)c2ccccc2O)C1=O (stereo unspecified) | > 89.4 µM
CCCCCCCCCCCCCC[n+]1ccc(C(N)=O)cc1 | 15.9 µM
O[C@@H]1CCC[C@@H]2NC[C@@H](c3ccc4c(c3)OCO4)[C@H]12 | > 100 µM
Cn1c(-c2ccccc2)c(/C=C/C2=[N+](C)c3ccccc3C2(C)C)c2ccccc21 | 11.7 µM
CCCCCCCC/C=C1\CCC(CN2CCOCC2)C1=O (stereo unspecified) | 30.1 µM
Cc1ccc2c(c1)C(=O)c1c-2c(OCCCN(C)C)nc2ccccc12 | 2.11 µM
O=CN1N=C(c2cccc(Nc3ccnc4cc(Cl)ccc34)c2)CC1c1ccccc1 (stereo unspecified) | > 79.4 µM
N/C(=N\Nc1ccc(Cl)cc1)c1cnccn1 | > 100 µM
